tested_system: T1, mouse PCSK9 (mouse, UniProt Q80W65 35-694, limits assumed)
T1 construct: also called mPCSK9; msPCK9
T1 sequence (Q80W65 35-694 limits assumed): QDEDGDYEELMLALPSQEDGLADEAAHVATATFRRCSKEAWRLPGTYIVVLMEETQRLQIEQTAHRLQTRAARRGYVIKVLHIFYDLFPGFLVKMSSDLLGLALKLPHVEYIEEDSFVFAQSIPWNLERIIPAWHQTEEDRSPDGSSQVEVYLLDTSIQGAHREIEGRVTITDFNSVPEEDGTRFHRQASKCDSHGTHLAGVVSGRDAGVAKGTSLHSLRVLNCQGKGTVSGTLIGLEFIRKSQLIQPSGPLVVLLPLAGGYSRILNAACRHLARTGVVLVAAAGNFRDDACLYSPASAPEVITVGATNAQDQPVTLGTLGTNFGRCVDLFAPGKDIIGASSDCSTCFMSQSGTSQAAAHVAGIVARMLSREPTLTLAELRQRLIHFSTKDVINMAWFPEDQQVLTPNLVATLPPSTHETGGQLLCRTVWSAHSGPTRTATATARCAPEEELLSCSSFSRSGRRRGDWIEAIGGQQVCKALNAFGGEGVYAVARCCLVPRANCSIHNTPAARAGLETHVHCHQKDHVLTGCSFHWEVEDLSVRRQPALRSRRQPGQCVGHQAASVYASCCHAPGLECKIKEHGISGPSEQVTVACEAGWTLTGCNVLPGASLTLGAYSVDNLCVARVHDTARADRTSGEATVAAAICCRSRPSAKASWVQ
test_name: SPR Biacore 3000, captured IgG, mPCSK9 injected, pH 5.5
Below, each of the binders is paired with its reported koff value.
Please give a number only; it is taken to be in s⁻¹.

Ask: Can you share its koff? I mean this binder: 5L1721H23_6H3 (antibody, V domains shown, Only CDRs printed; Full-length IgG) VH: QVQLVQSGAEVKKPGASVKVSCKASGYTFTSYYMHWVRQAPGQGLEWMGEIHPSGGRTNYNEKFKSRVTMTRDTSTSTVYMELSSLRSEDTAVYYCARERPLYASDLWGQGTTVTVSS VL: DIQMTQSPSSLSASVGDRVTITCKASQDVHTAVAWYQQKPGKAPKLLIYHASYRYTGVPSRFSGSGSGTDFTFTISSLQPEDIATYYCQQRYSTPRTFGQGTKLEIK
Reply: 0.0341

Ask: Please look up its koff: 5L1721H23 (antibody, V domains shown, Triple histidine mutant of h5A10; Only CDRs printed; Full-length IgG) VH: QVQLVQSGAEVKKPGASVKVSCKASGYTFTSYYMHWVRQAPGQGLEWMGEIHPSGGRTNYNEKFKSRVTMTRDTSTSTVYMELSSLRSEDTAVYYCARERPLYAMDYWGQGTTVTVSS VL: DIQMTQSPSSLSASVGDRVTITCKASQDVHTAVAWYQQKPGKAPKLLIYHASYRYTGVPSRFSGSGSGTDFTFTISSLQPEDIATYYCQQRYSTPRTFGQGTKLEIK
Reply: 0.0588

Ask: Given the binder 6L21H2335 (antibody, V domains shown) VH: QVQLVQSGAEVKKPGASVKVSCKASGYTFTSYYMHWVRQAPGQGLEWMGEIHPFGGRTNYNEKFKSRVTMTRDTSTSTVYMELSSLRSEDTAVYYCARERPLHASDLWGQGTTVTVSS VL: DIQMTQSPSSLSASVGDRVTITCRASQGISSALAWYQQKPGKAPKLLIYHASYRYTGVPSRFSGSGSGTDFTFTISSLQPEDIATYYCQQRYSLWRTFGQGTKLEIK , what is its reported koff?
Reply: 0.237

Ask: Requested read-out: koff. Entry: 5L1721H23_6L3 (antibody, V domains shown, Tested as full-length IgG; also called heavy UC-H5H23, light UC-H5L1721-6L3) VH: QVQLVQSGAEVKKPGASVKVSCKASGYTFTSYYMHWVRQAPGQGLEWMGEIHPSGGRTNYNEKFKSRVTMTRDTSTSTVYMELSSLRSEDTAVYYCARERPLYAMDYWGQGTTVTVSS VL: DIQMTQSPSSLSASVGDRVTITCKASQDVHTAVAWYQQKPGKAPKLLIYHASYRYTGVPSRFSGSGSGTDFTFTISSLQPEDIATYYCQQRYSLWRTFGQGTKLEIK
Reply: 0.0428

Ask: Using the record for 6L1721H23 (antibody, V domains shown, L1L3-based mutant; Full-length IgG) VH: QVQLVQSGAEVKKPGASVKVSCKASGYTFTSYYMHWVRQAPGQGLEWMGEIHPFGGRTNYNEKFKSRVTMTRDTSTSTVYMELSSLRSEDTAVYYCARERPLYASDLWGQGTTVTVSS VL: DIQMTQSPSSLSASVGDRVTITCRASQGIHSALAWYQQKPGKAPKLLIYHASYRYTGVPSRFSGSGSGTDFTFTISSLQPEDIATYYCQQRYSLWRTFGQGTKLEIK , report its koff.
Reply: 0.00729

Ask: Looking for the measured koff of 5L1724H23_6L3H3 (antibody, V domains shown, Only CDRs printed; Full-length IgG) VH: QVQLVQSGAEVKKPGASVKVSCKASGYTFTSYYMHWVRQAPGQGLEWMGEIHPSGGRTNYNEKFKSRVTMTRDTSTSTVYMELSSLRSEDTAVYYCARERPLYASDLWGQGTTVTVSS VL: DIQMTQSPSSLSASVGDRVTITCKASQDVHTAVAWYQQKPGKAPKLLIYSASHRYTGVPSRFSGSGSGTDFTFTISSLQPEDIATYYCQQRYSLWRTFGQGTKLEIK , can you help?
Reply: 0.0263

Ask: Would you mind telling me what koff value was observed for 6L1721 (antibody, V domains shown, L1L3-based mutant; Tested as full-length IgG) VH: QVQLVQSGAEVKKPGASVKVSCKASGYTFTSYYMHWVRQAPGQGLEWMGEISPFGGRTNYNEKFKSRVTMTRDTSTSTVYMELSSLRSEDTAVYYCARERPLYASDLWGQGTTVTVSS VL: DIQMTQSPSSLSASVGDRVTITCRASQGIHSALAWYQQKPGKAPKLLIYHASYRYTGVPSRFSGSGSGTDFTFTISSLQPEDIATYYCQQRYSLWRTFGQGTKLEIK ?
Reply: 0.00177

Ask: Any idea what its koff is? The binder is 5L1721H23_6L3H3 (antibody, V domains shown, Tested as full-length IgG; also called heavy UC-H5H23-6H3, light UC-H5L1721-6L3) VH: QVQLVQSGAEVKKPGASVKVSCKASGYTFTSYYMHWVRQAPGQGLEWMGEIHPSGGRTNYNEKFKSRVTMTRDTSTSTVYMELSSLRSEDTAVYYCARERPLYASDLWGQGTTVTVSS VL: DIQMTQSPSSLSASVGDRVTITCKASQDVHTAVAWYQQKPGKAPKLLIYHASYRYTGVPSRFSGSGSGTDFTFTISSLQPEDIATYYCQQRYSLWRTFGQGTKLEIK
Reply: 0.0187

Ask: Report koff for 5L1724H23 (antibody, V domains shown, Triple histidine mutant of h5A10; Only CDRs printed; Full-length IgG) VH: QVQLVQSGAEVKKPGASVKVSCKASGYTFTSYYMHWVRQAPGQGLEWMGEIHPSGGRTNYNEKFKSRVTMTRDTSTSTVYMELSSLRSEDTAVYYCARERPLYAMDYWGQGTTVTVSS VL: DIQMTQSPSSLSASVGDRVTITCKASQDVHTAVAWYQQKPGKAPKLLIYSASHRYTGVPSRFSGSGSGTDFTFTISSLQPEDIATYYCQQRYSTPRTFGQGTKLEIK please.
Reply: 0.0202
